assay: Quantitative High-Throughput drug screen in 47 multiple myeloma cell lines against the NCATS MIPE library collection: JIM1_ECACC cell viability assay (AID 1918964); conditions: JIM1 myeloma viability, CellTiter-Glo ATP luminescence, 48 h; series mostly up to 45.8 µM
Inconclusive results are not listed. Activity calls are given as the source filed them. Calls follow the shape of the dose curve; as a rule, active = well fitted cell-killing curve with a large enough effect; inconclusive = small, poorly fitted or top-dose-only effect, or effect the other way; inactive = no such curve, though single readings can be large or run the other way.
Please reply with one of these outcomes: 1 (yes) = active, 0 (no) = inactive

[
  {
    "Compound": "C=C[C@@H]1CN2CCC1C[C@@H]2C(O)c1ccnc2ccc(OC)cc12 (some centres not stated)",
    "Class Name": "0 (no)"
  },
  {
    "Compound": "CCc1cc(-c2n[nH]c(C)c2-c2ccc3c(c2)OCCO3)c(O)cc1O",
    "Class Name": "1 (yes)"
  },
  {
    "Compound": "CO[C@H]1/C=C\\O[C@@]2(C)Oc3c(C)c(O)c4c(O)c(c5c(nc6cc(C)ccn65)c4c3C2=O)NC(=O)C(C)=CC=C[C@H](C)[C@H](O)[C@@H](C)[C@@H](O)[C@@H](C)[C@H](OC(C)=O)[C@H]1C",
    "Class Name": "1 (yes)"
  },
  {
    "Compound": "COc1ccc(-c2cc3nccn3c(Nc3ncccc3C(N)=O)n2)cc1OC",
    "Class Name": "1 (yes)"
  },
  {
    "Compound": "COc1ccc(-c2cc(=O)c3c(O)cc(O[C@@H]4O[C@H](CO[C@@H]5O[C@@H](C)[C@H](O)[C@@H](O)[C@@H]5O)[C@@H](O)[C@H](O)[C@@H]4O)cc3o2)cc1O",
    "Class Name": "0 (no)"
  }
]

Hello, I am checking results. What call was entered for CC(C)[C@H](O)C(=O)N[C@@H](C)C(=O)N[C@@H]1C(=O)N(C)CCc2ccccc21 ?
0 (no)

Kindly provide the recorded test outcome for the following compound: N=C1SC(=Cc2ccc(-c3ccc4c(c3)C(=O)NC4=O)o2)C(=O)N1c1ccc(Br)cc1
0 (no)

====

assay: qHTS profiling of the MIPE4 collection as inhibitors of Plasmodium falciparum (DD2) proliferation (AID 743345); conditions: P. falciparum Dd2 in erythrocytes, SYBR Green DNA, 72 h; at 28.5 µM (top of the series) unless noted
Measurement Label: parasite growth remaining, % of DMSO control (lower = more inhibition) (%)
Your answer is read as %, so omit the unit and give the number.

Output parasite growth remaining, % of DMSO control (lower = more inhibition) of OC1CCC(Nc2ncc3nc(Nc4c(F)cc(F)cc4F)n([C@@H]4CCOC4)c3n2)CC1 (stereo partly drawn)
84.7

====

System: HEK293
Experiment: Cytotoxic Profiling of Annotated Libraries Using Quantitative High-Throughput Screening (AID 1296008); also: nearly all actives have a fitted effect of over 60% in size
Details: Five cell lines viability, CellTiter-Glo ATP luminescence, 48-72 h
Description: Cell-based phenotypic screening is a commonly used approach to discover biological pathways, novel drug targets, chemical probes and high-quality hit-to-lead molecules. […] A pintool (Kalypsys) was used to transfer 23 nL of compound solution to the 1536-well assay plates. […] Plates were left at room temperature for 10 min before imaging the ATP-coupled luminescence using a ViewLux microplate imager (PerkinElmer, Waltham, MA).
Results filed as inconclusive are left out. Active and inactive are the calls of the source. The call rests on the fitted dose curve; in most records, active means well fitted inhibition curve with a large enough effect; inconclusive means small, poorly fitted or top-dose-only effect; inactive means flat fitted curve, though single readings scatter.
Just give me one of these, please: active, inactive

Fill in: this test's call for CC(C)(O)CC(=O)NCCn1ccc2ncnc(Nc3ccc(Oc4cccc(C(F)(F)F)c4)c(Cl)c3)c21 is ___
active

Can you look up the reported call for C[C@]12CC[C@@H]3c4ccc(O)cc4CC[C@H]3[C@H]1[C@@H](O)[C@@H](O)[C@H]2O for me?
inactive

Could you check what this test reported for Cc1[nH]c(C=C2C(=O)Nc3ccc(S(=O)(=O)N(C)c4cccc(Cl)c4)cc32)c(C)c1C(=O)N1CCN(C)CC1 ?
active

Look up the recorded call for O=S(=O)(NCCNCC=Cc1ccc(Br)cc1)c1cccc2cnccc12 in this test.
active

FYI, the data here is from PubChem BioAssay (NCATS).
